Just for reference, patent US20180291110A1 is where these values come from.

# Assay Target: T1, human transferrin receptor (recombinant, for surface plasmon resonance) (human, UniProt P02786 89-760)
# T1 construct: also called huTfR; human transferrin receptor-biotinylated
# T1 sequence (P02786 89-760 limits assumed): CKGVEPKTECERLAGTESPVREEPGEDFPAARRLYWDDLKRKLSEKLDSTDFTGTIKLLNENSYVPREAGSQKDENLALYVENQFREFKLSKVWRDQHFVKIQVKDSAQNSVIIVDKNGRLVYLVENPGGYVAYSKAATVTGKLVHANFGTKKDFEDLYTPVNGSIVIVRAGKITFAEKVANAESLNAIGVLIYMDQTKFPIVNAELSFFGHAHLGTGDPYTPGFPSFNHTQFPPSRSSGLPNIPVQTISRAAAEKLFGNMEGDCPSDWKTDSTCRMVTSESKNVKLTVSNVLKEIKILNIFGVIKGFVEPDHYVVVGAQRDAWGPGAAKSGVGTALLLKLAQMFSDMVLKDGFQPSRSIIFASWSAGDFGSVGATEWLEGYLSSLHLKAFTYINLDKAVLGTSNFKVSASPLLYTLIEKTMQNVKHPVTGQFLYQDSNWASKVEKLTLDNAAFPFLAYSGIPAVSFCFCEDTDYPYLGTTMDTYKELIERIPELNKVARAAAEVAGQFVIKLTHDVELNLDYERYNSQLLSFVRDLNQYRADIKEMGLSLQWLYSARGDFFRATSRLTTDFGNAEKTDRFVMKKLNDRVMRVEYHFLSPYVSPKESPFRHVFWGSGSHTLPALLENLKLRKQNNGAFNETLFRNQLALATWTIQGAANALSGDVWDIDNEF
# Assay Protocol: SPR 25C
Measured Property: koff (s⁻¹)
Answers are plain numbers, in s⁻¹.

{"columns": ["Binder", "koff [s⁻¹]"],
 "data": [
  ["2/99 VH22/VL2 (antibody, V domains shown) VH: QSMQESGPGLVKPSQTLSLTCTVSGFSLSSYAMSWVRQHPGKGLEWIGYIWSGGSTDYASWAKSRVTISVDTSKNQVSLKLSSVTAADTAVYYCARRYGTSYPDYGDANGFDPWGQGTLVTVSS VL: DIQMTQSPSSLSASVGDRVTITCRASQSISSYLNWYQQKPGKAPKLLIYRASTLASGVPSRFSGSGSGTDFTLTISSLQPEDFATYYCQQSYSSSNVDNTFGGGTKVEIK", 0.00126]
]}

Consider the additional binder presented here.
# koff of 2/99 VH16/VL15 (antibody, V domains shown) VH: QQLQESGPGLVKPSETLSLTCTVSGFSLSSYAMSWVRQPPGKGLEWIGYIWSGGSTDYNPSLKSRVTISVDTSKNQVSLKLSSVTAADTAVYYCARRYGTSYPDYGDANGFDPWGPGTLVTVSS VL: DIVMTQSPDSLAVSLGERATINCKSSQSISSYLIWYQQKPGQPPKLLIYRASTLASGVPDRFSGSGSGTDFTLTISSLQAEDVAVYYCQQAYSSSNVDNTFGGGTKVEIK = 0.00477
